- target desc: recombinant mTOR (FLAG-tagged, residues 1362-2549) (Homo sapiens, UniProt P42345)
- Sequence (P42345 1362-2549): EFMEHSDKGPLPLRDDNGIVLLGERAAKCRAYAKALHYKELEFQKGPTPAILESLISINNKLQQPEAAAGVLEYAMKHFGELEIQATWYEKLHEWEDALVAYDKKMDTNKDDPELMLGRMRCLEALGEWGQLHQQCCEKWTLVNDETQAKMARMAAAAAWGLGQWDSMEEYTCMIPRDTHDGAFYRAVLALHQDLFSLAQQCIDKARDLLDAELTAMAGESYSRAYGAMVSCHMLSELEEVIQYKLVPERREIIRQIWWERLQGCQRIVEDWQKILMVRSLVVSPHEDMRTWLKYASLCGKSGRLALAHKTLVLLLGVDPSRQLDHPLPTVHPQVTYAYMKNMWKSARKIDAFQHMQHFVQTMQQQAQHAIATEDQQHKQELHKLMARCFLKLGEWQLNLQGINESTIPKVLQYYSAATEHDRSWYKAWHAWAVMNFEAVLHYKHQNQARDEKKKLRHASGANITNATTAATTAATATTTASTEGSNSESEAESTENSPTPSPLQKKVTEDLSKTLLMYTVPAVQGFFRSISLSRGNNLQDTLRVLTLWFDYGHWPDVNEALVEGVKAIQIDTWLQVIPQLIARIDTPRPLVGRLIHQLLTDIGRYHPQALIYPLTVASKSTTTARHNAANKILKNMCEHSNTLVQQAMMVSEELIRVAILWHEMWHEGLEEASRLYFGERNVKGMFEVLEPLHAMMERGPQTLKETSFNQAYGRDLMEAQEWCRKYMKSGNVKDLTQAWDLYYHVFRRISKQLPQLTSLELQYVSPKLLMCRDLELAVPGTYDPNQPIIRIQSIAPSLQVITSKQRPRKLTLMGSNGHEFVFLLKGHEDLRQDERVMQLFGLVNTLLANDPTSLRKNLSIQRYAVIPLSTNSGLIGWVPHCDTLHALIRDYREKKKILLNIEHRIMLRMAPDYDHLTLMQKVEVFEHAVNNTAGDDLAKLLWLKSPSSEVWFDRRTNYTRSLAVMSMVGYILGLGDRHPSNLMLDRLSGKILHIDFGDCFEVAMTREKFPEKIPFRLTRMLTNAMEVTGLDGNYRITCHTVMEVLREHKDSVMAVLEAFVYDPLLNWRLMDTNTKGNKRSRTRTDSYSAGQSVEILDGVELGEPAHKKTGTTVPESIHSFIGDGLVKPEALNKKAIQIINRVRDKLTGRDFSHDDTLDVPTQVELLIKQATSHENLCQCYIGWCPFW
- experiment description: In vitro mTOR kinase assay (Test (a), AlphaScreen)
- applied conditions: ATP 20 μM, read-out: Test (a): IC50 versus mTOR kinase
- Excerpt: (a) In Vitro mTOR Kinase Assay Following expression in the mammalian HEK293 cell line, expressed protein was purified using the FLAG epitope tag using standard purification techniques. […] The resultant signals arising from laser light excitation at 680 nm were read using a Packard Envision instrument. […] mTOR enzyme inhibition for a given test compound was expressed as an IC50 value.
pIC50: −log10 of the molar value.
measurement type: pIC50

Solved cases below.
>  <compound>
C[C@H]1COCCN1c1cc(CN2CCN(C)CC2)nc(-c2ccc(NC(=O)NCc3cnn(C)c3)cc2)n1

>  <pIC50>
5.85

$$$$
>  <compound>
COc1ccc(NC(=O)Nc2ncc(-c3nc(CS(C)(=O)=O)cc(N4CCOC[C@@H]4C)n3)s2)cc1 [Example 46f]

>  <pIC50>
5.92

$$$$
>  <compound>
CNC(=O)CS(=O)(=O)Cc1cc(N2CCOC[C@@H]2C)nc(-c2ccc(NC(=O)NC)cc2)n1

>  <pIC50>
7.54

$$$$

[1] C[C@H]1COCCN1c1cc(C(C)(C)S(C)(=O)=O)nc(-c2ccc(NC(=O)Nc3ccc(F)cn3)cc2)n1 [Example 24y]
[2] COCCNC(=O)Nc1ccc(-c2nc(CS(=O)(=O)c3ccccc3)cc(N3CCOC[C@@H]3C)n2)cc1 [Example 20j]
[3] C[C@H]1COCCN1c1cc(COC2CCN(C)CC2)nc(-c2ccc(NC(=O)Nc3ccccc3)cc2)n1
[4] C[C@H]1COCCN1c1cc(CO)nc(-c2ccc(NC(=O)Nc3ccon3)cc2)n1
[5] CNC(=O)Nc1ccc(-c2nc(CS(=O)(=O)c3ccc(N)cc3)cc(N3CCOC[C@@H]3C)n2)cc1 [Example 33d]
Exercise: // smallest pIC50 at index 0, largest at the end # output: labels, in the requested order
Key: 1, 2, 3, 4, 5

* * *

- target desc: recombinant mTOR (FLAG-tagged, residues 1362-2549) (Homo sapiens, UniProt P42345)
- experiment description: In vitro mTOR kinase assay (Test (a), AlphaScreen)
- applied conditions: ATP 20 μM, read-out: Test (a): IC50 versus mTOR kinase
- Description: (a) In Vitro mTOR Kinase Assay Following expression in the mammalian HEK293 cell line, expressed protein was purified using the FLAG epitope tag using standard purification techniques. […] The resultant signals arising from laser light excitation at 680 nm were read using a Packard Envision instrument. […] mTOR enzyme inhibition for a given test compound was expressed as an IC50 value.
measurement type: IC50 (nM)

>  <molecule>
CCNC(=O)Nc1ccc(-c2nc(CS(C)(=O)=O)cc(N3CCOC[C@@H]3C)n2)cc1F

>  <measurement unit>
nM

>  <IC50>
31

$$$$
>  <molecule>
C[C@H]1COCCN1c1cc(CN2CCN(C)CC2)nc(-c2ccc(NC(=O)NC3CC3)cc2)n1 [Example 49b]

>  <measurement unit>
nM

>  <IC50>
14

$$$$

[a] CNC(=O)Nc1ccc(-c2nc(CS(=O)(=O)c3nccs3)cc(N3CCOC[C@@H]3C)n2)cc1 [Example 33g]
[b] CS(=O)(=O)Cc1cc(N2CCOCC2)nc(-c2ccc(NC(=O)NCCN3CCOCC3)cc2)n1 [Example 45o]
Exercise: Could you determine which record has the numerically smaller IC50? Candidates: a and b When you have decided, please share the label of that item.
Key: a
(a: 21 nM, b: 900 nM)
